As shown below, each of these compounds has a reported Morningglory plant response rating value.
Tested on: morningglory
experimental_details: Test A pre-/postemergence greenhouse test
Assay type: in vivo, Ipomoea spp.
measurement_conditions: Postemergence, 500 g ai/ha; 0 to 100 scale, 0 is no effect, 100 is complete control
Give your answer as a number; write no unit.

Observe how each entry below is paired with its result.
compound: Cn1nc(C(F)(F)F)c(CS(=O)(=O)c2cccc[n+]2[O-])c1OCC(F)(F)C(F)(F)F
Morningglory plant response rating: 30
--
compound: Cc1ccc[n+]([O-])c1[S+]([O-])Cc1c(C(F)(F)F)nn(C)c1OC(F)F (centres unmarked)
Morningglory plant response rating: 90
--
compound: CCn1nc(C(F)(F)F)c(C[S+]([O-])c2cc(C)cc[n+]2[O-])c1OCC(F)(F)F (racemic)
Morningglory plant response rating: 90

So what does the record say about Morningglory plant response rating for CC(c1c(C(F)(F)F)nn(C)c1Cl)S(=O)(=O)c1ccc(Cl)c[n+]1[O-] (racemic) ?
30

Cc1cc[n+]([O-])c(S(=O)(=O)C(Cl)c2c(C(F)(F)F)nn(C)c2OCC(F)(F)F)c1 (racemic) , same question.
20

Likewise for CCCc1cc[n+]([O-])c([S+]([O-])Cc2c(C(F)(F)F)nn(C)c2OC(F)F)c1 (centres unmarked) ?
90

Could you do the same for CCc1cc[n+]([O-])c([S+]([O-])Cc2c(C(F)(F)F)nn(C)c2OCC(F)(F)F)c1 (centres unmarked) , please?
90

Moving on to the next compound: CC(c1c(C(F)(F)F)nn(CC(F)(F)F)c1Cl)[S+]([O-])c1cccc[n+]1[O-] (centres unmarked)
60

----------
System: pigweed
experimental_details: Test C pre-/postemergence test
Format: in vivo, Amaranthus retroflexus
measurement_conditions: 125 g ai/ha, preemergence; scale 0 (no effect) to 100 (complete control)
experimental_readout: Pigweed plant response rating

Below are worked cases with known answers.
compound: Cn1nc(C(F)(F)F)c(C[S+]([O-])c2ccc(F)c[n+]2[O-])c1OCC(F)(F)F (stereo not drawn)
Pigweed plant response rating: 100

compound: Cn1nc(C(F)(F)F)c(C[S+]([O-])c2ccc(Cl)c[n+]2[O-])c1OCC(F)F (stereo not drawn)
Pigweed plant response rating: 100

What value of measured Pigweed plant response rating is listed for Cc1cc[n+]([O-])c(S(=O)(=O)Cc2c(C(F)(F)F)nn(C)c2OC(C)C(F)(F)F)c1 (stereo not drawn) ?
70

----------
Tested on: crabgrass
experimental_details: Test A pre-/postemergence greenhouse test
Assay type: in vivo, Digitaria sanguinalis
measurement_conditions: Preemergence, 500 g ai/ha; 0 to 100 scale where 0 is no effect and 100 is complete control
experimental_readout: Plant response rating, Crabgrass, Large
Reply: number alone, nothing else.

Example entries begin here.
molecule: CC(c1c(C(F)(F)F)nn(C)c1OC(F)F)S(=O)(=O)c1ccc(Br)c[n+]1[O-] (racemic)
Plant response rating, Crabgrass, Large: 90
--
molecule: O=S(=O)(Cc1c(C(F)(F)F)nn(CC(F)(F)F)c1Cl)c1cccc[n+]1[O-]
Plant response rating, Crabgrass, Large: 100
--
molecule: CC(c1c(C(F)(F)F)nn(C)c1Cl)S(=O)(=O)c1ccc(Cl)c[n+]1[O-] (racemic)
Plant response rating, Crabgrass, Large: 90
--
molecule: Cn1nc(C(F)(F)C(F)(F)F)c(C[S+]([O-])c2ccc(Cl)c[n+]2[O-])c1OCC(F)(F)F (stereo not shown)
Plant response rating, Crabgrass, Large: 90
--
molecule: Cn1nc(C(F)(F)F)c(CS(=O)(=O)c2cccc[n+]2[O-])c1OCC(F)(F)F
Plant response rating, Crabgrass, Large: 100

// fetch crabgrass Plant response rating, Crabgrass, Large for `Cn1nc(C(F)(F)F)c(CS(=O)(=O)c2cccc[n+]2[O-])c1OCC(F)(F)C(F)(F)F`
80

Entry Cn1nc(C(F)(F)F)c(C[S+]([O-])c2ccc(F)c[n+]2[O-])c1OCC(F)(F)F (stereo not shown) please
100

Next entry: Cc1cc[n+]([O-])c(S(=O)(=O)C(Cl)c2c(C(F)(F)F)nn(CC(F)(F)F)c2Cl)c1 (stereo not shown)
80

Same for Cn1nc(C(F)(F)F)c(C[S+]([O-])c2ccc(Cl)c[n+]2[O-])c1OC(F)F (stereo not shown)
100

And then Cn1nc(C(F)(F)F)c(C[S+]([O-])c2cc(F)cc[n+]2[O-])c1Cl (racemic) , what is it?
100
